Some compounds, each annotated with its measured EC50.
system: MKN45 cells; test: MKN45 cell proliferation assay (Cell-Titer-Glo, 120 hr); assay type: cell-based; conditions: Homo sapiens, MKN-45, 120 h, read-out: MKN45 Cell Prolif. 120 hr EC50

{"columns": ["compound", "study.target", "units.symbol", "EC50"],
 "data": [
  ["COC[C@@H]1CN(Cc2cc(F)c3nc(C4CCOC(C)(C)C4)ncc3c2)C[C@H]1Oc1ccc2c(c1)CN([C@H]1CCC(=O)NC1=O)C2=O (stereo partly drawn)", "MKN45 cells", "nM", 2],
  ["COC[C@@H]1CN(Cc2cc(F)c3nc(C4CCN(C5COC5)CC4)ccc3c2)C[C@H]1Oc1ccc2c(c1)CN([C@H]1CCC(=O)NC1=O)C2=O", "MKN45 cells", "nM", 1],
  ["COC[C@@H]1CN(Cc2cc(F)c3nc(C(C)(C)O)ncc3c2)C[C@H]1Oc1ccc2c(c1)CN([C@H]1CCC(=O)NC1=O)C2=O", "MKN45 cells", "nM", 10],
  ["O=C1CC[C@H](N2Cc3cc(O[C@@H]4CN(Cc5cc(F)c6nc(N7C[C@@H]8CCO[C@@H]8C7)ccc6c5)CC4(F)F)ccc3C2=O)C(=O)N1 (single isomer, unassigned)", "MKN45 cells", "nM", 6],
  ["COC[C@@H]1CN(Cc2cc(F)c3cc(N4CCOCC4)cnc3c2)C[C@H]1Oc1ccc2c(c1)CN([C@H]1CCC(=O)NC1=O)C2=O", "MKN45 cells", "nM", 29],
  ["O=C1CC[C@H](N2Cc3cc(O[C@H]4CCN(Cc5cc(F)c6nc(N7C[C@@H]8CCO[C@@H]8C7)ncc6c5)C4)ccc3C2=O)C(=O)N1 (single isomer, unassigned)", "MKN45 cells", "nM", 12]
]}
